Entry source: patent US9340537B2

Listed here: items and their measured IC50.
MEASURED TARGET: ABL1 (64-515) (Homo sapiens (Human), UniProt P00519)
Sequence (P00519 64-515): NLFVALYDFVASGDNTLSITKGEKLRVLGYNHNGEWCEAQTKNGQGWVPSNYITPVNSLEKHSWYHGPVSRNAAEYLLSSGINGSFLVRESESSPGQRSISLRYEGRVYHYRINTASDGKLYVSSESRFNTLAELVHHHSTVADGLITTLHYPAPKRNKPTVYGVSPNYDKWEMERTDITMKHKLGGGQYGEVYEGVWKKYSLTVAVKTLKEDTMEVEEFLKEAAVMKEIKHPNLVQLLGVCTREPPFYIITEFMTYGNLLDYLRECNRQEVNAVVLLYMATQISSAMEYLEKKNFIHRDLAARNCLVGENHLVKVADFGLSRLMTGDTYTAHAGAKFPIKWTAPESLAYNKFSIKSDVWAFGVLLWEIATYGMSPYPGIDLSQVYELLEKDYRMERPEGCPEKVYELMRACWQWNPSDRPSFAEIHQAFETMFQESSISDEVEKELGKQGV
ASSAY METHOD TEXT: Radio ABL1 (64-515) radiometric filter-binding kinase assay
Format: biochemical
DETAILS: 20 μM ATP

CO[C@H]1CN(c2ncc(C(=O)Nc3ccc(OC(F)(F)Cl)cc3)cc2-c2ccn[nH]2)C[C@@H]1N (relative stereo) [Example 79] :: 1 nM
O=C(Nc1ccc(OC(F)(F)Cl)cc1)c1cnc(N2CCN(CCF)CC2)c(-c2ccn[nH]2)c1 [Example 58] :: 5.7 nM
N#Cc1ccc(-c2cc(C(=O)Nc3ccc(OC(F)(F)F)cc3)cnc2N2C[C@H](O)[C@@H](O)C2)[nH]1 [Example 31] :: < 0.1 nM
O=C(Nc1ccc(OC(F)(F)Cl)cc1)c1cnc(N2C[C@H](O)[C@@H](F)C2)c(-c2ccn[nH]2)c1 (relative stereo) [Example 75] :: 3 nM

IC50 reading for O=C(Nc1ccc(OC(F)(F)Cl)cc1)c1cnc(N2CCN(C3CC3)CC2)c(-c2ccn[nH]2)c1 [Example 57] : 5.8 nM

IC50 reading for O=C(Nc1ccc(OC(F)(F)F)cc1)c1cnc(N2CCCC2)c(-c2ccn[nH]2)c1 [Example 15] : < 3 nM

IC50 reading for O=C(Nc1ccc(OC(F)(F)F)cc1)c1cnc(N2CC[C@@H](O)C2)c(-c2ccoc2)c1 [Example 7] : < 3 nM
